# measuredOn: T1, soluble recombinant human lymphotoxin α1β2 (human, UniProt P01374 35-205, limits assumed)
# T1 sequence 1: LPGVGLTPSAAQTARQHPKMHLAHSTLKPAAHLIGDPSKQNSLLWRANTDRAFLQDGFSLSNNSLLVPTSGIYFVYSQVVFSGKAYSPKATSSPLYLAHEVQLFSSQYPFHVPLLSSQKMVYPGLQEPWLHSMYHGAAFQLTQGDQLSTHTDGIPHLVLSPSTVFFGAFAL
# T1 sequence 2: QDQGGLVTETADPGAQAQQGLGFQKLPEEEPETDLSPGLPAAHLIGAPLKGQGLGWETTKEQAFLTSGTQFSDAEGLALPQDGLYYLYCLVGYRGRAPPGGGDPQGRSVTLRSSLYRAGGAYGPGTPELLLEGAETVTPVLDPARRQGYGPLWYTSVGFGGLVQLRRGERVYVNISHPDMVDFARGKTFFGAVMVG
# experiment: cell-based or functional assay
readoutName: Maximum % Inhibition of IL-8 release (%)
// units = %; emit number, no label

Below, 3 binders whose answers are already recorded.
# binder, Maximum % Inhibition of IL-8 release / %
rows = [
    ("A0D9 (antibody, V domains shown, Murine monoclonal antibody, kappa light chain; also called mAb A0D9; AOD9) VH: QVQLKQSGPGLVQPSQSLSITCTVSGFSLSTYGVHWVRQFPGKGLEWLGVIWRGGNTNYNAAFMSRLTISKDNSKSQVFFKMNSLQAKDTAIYYCVRNQIYDGYYDYAMDYWGQGTSVTVSS VL: DIKMTQSPSSMYASLGERVTITCKASQDINTYLNWLQQKPGKSPKTLIYRANRLVDGVPSRFSGRGSGQDYSLTISSLEYEDVGIYYCLHYDAFPWTFGGGTKLEIK", 94),
    ("A1D5 (antibody, V domains shown, Murine monoclonal antibody, kappa light chain; also called mAb A1D5) VH: EVQLQQSGPELVKPGASVKISCKASGYSFTGYFMNWMRQSHGKSLEWIGRINPYNGDSFYNQKFKDKATLTVDKSSTTAHMELLSLTSEDSAVYYCGRGYDAMDYWGQGTSVTVSS VL: DIQMTQTTSSLSASLGDRVTISCRASQDISNFLTWYQQKPDGTVKLLIYYTSKLHSGVPSRFSGSGSGTDYSLTISNLEPGDIATYYCQQVSKFPWTFGGGAKLEIK", 94),
    ("9B4 (antibody, V domains shown, Murine monoclonal antibody, kappa light chain; also called LT 9B4; LT9B4) VH: QVTLKESGPGILQPSQTLSLTCSFSGFSLSTSGMGVSWIRQPSGKGLEWLAHIYWDDDKRYNPSLRSRLTISKDTSRNQVFLKITSVDTADTATYYCARREGYYGSSFDFDVWGAGTTVTVSS VL: QIVLSQSPAILSASPGEKVTMTCRASSSVSYMIWYQQKPGSSPKPWIYATSSLASGVPTRFSGSGSGTSYSLTISRVEAADAATYYCQQWSYNPLTFGAGTKLELK", 95),
]

Input: Find the recorded Maximum % Inhibition of IL-8 release belonging to LT102 (P1G8.2) (antibody, IgG1, V domains shown, also called mAb LT102; LT012) VH: EVKLVESGGGLVKPGGSLKLSCAVSGFTFSDYYMYWIRQTPEKRLEWVATIGDGTSYTHYPDSVQGRFTISRDYATNNLYLQMTSLRSEDTALYYCARDLGTGPFAYWGQGTLVTVSA VL: DVLMTQTPRSLPVSLGDQASISCRSSQNIVHSNGNTYLEWYLQKPGQSPKLLIYKVSNRFSGVPDRFSGSGSGTDFTLKISRVEAEDLGVYYCFQGSHFPWTFGGGTKLEIK and report it.
Output: 92

Input: Find the recorded Maximum % Inhibition of IL-8 release belonging to LT101 (P1G4.4) / LT103 (P1G9.1) (antibody, V domains shown, Murine monoclonal antibody, kappa light chain; also called LT101/LT103) VH: QVQLQQSGPELVKPGASVQISCKASGYVFSSSWMNWVKQRPGRGLEWIGRIYPGDGDTDYTGKFKGKATLTADKSSNTAYMQLSSLTSVDSAVYFCASGYFDFWGQGTPLTVSS VL: DITMTQSPSSMYASLGERVTITCKASQDMNNYLRWFQQKPGKSPQTLIFRANRLVDGVPSRFSGSGSGQDYSLTISSLEFEDMGIYYCLQHDKFPPTFGGGTKLEIK and report it.
Output: 90

Entry source: patent US20140079716A1
